Source of measurements: paper PMC3817407

- Measured On: T1, ECF17_1458
- T1 chain: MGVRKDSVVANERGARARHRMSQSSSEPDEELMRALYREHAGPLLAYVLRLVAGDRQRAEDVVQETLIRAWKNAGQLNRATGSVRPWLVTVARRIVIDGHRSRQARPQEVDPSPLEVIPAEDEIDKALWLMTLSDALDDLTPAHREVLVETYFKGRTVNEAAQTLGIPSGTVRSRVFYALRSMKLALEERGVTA
Observed Property: fold repression
Reply briefly: the number, and no unit.

As a guide, the following entries are already answered.
[Q] For the binder shown here, AS27_4265 (protein) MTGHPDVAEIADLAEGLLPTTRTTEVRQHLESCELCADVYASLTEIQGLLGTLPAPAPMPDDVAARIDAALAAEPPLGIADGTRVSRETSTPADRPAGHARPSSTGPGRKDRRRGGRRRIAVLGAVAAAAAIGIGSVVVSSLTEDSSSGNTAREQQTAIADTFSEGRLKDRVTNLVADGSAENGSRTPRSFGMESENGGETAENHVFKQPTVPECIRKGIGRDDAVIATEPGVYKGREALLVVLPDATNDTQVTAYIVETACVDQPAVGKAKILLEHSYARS , give the reported fold repression.
[A] 2.47

[Q] Param item = AS33_375 (protein) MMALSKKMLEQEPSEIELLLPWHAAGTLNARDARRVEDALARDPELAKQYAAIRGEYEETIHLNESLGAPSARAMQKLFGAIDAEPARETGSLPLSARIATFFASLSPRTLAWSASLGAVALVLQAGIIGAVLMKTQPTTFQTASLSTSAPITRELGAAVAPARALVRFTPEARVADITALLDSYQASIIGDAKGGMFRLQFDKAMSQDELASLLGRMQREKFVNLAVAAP ; retrieve measured fold repression.
[A] 11.3

[Q] Endpoint output: fold repression of AS01_3473 (protein) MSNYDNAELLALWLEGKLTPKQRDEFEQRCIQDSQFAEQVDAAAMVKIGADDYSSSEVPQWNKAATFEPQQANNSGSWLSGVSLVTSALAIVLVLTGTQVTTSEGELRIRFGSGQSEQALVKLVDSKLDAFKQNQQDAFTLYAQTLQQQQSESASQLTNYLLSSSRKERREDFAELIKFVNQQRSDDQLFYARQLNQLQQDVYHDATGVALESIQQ . Value?
[A] 1.83

[Q] Sample AS16_973 (protein) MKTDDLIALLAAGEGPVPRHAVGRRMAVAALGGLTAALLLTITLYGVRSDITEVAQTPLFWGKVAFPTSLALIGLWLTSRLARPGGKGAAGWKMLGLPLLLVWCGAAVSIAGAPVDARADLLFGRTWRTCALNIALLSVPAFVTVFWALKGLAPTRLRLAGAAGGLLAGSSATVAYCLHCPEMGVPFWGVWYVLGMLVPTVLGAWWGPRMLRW — what was its fold repression?
[A] 1.11

Continuing:
[Q] # fold repression lookup, item AS14_1324 (protein) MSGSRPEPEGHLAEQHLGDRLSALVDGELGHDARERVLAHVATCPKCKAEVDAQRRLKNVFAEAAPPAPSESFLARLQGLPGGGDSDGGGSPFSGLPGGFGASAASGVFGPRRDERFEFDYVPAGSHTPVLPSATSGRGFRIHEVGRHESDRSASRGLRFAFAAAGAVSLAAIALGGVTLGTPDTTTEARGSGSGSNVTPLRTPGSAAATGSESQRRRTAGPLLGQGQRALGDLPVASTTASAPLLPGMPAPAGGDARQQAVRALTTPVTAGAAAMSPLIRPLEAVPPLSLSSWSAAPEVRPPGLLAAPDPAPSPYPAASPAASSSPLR
[A] 7.16
